- System: aCD3/aCD28-stimulated human PBMCs
- assay-info: Cytokine production in aCD3/aCD28 stimulated human PBMCs
- Assay type: cell-based
- condition-set: PBMC, enhancement of IL-2 production, 18 h, read-out: Activity Class IL-2
pEC50: −log10 of the molar value. Counter-ions that a name gives are not always drawn.

compound	pEC50
Cl.N[C@H]1CSc2ccc(C(=O)NCc3ccc(F)cc3)cc2N(Cc2ccc(OC(F)(F)F)cc2)C1=O [Example 31, hydrochloride]	> 5.80
COc1ccc(CNC(=O)c2ccc3c(c2)N(Cc2ccc(OC)cc2)C(=O)[C@@H](N)CS3(=O)=O)cc1	5.30 to 5.80
N#Cc1ccc(CN2C(=O)[C@@H](N)CS(=O)(=O)c3cc(F)c(C(=O)NCCCC(F)(F)F)cc32)cc1 [Example 125, hydrochloride]	5.30 to 5.80

====

- Tested on: aCD3/aCD28-stimulated human PBMCs
- assay-info: Cytokine production in aCD3/aCD28 stimulated human PBMCs
- Format: cell-based
- condition-set: PBMC, enhancement of IL-2 production, 18 h, read-out: Activity Class IL-2
- Method: In order to determine the immune modulatory effect of compounds of compounds of the present invention in human PBMCs, compounds were assessed in the following assay set-up: […] 1e6 cells/mL were stimulated with soluble anti CD3/CD28 antibodies (1 μg/mL both, clones OKT3 and 28.2) in the presence of described compounds. […] Cytokine concentration in tissue culture supernatants were determined with MSD or HTRF kits (MSD and Cisbio), according to manufacturer's instructions.
pEC50: −log10 of the molar value. Where a name gives a salt, the structure may show the parent alone.

compound	target-desc	pEC50
Cl.N[C@H]1CS(=O)(=O)c2cc(F)c(C(=O)NCC3CC3)cc2N(Cc2ccc(Cl)cc2)C1=O [Example 110, hydrochloride]	aCD3/aCD28-stimulated human PBMCs	> 5.80
N[C@H]1CS(=O)(=O)c2ccc(C(=O)N[C@@H]3CC3(F)F)cc2N(Cc2ccc(C(F)(F)F)cc2)C1=O	aCD3/aCD28-stimulated human PBMCs	> 5.80
Cl.N[C@H]1CSc2ccc(C(=O)NCCCC(F)(F)F)cc2N(Cc2ccc(C(F)(F)F)nc2)C1=O [Example 36, hydrochloride]	aCD3/aCD28-stimulated human PBMCs	< 5.30
COc1ccc(CNC(=O)c2ccc3c(c2)N(Cc2ccc(Cl)cc2)C(=O)[C@@H](N)CS3(=O)=O)cc1	aCD3/aCD28-stimulated human PBMCs	> 5.80
CCCCNC(=O)c1ccc2c(c1)N(Cc1ccc(C#N)cc1)C(=O)[C@@H](N)CS2.Cl [Example 21, hydrochloride]	aCD3/aCD28-stimulated human PBMCs	< 5.30
CC1(NC(=O)c2cc3c(cc2F)S(=O)(=O)C[C@H](N)C(=O)N3Cc2ccc(Cl)cc2)CCC1.Cl [Example 100, hydrochloride]	aCD3/aCD28-stimulated human PBMCs	> 5.80
COc1ccc(CN2C(=O)[C@@H](N)CS(=O)(=O)c3cc(F)c(C(=O)NC4CC4(F)F)cc32)cc1 (stereo partly shown)	aCD3/aCD28-stimulated human PBMCs	5.30 to 5.80
CC(C)NC(=O)c1ccc2c(c1)N(Cc1ccc(Cl)cc1)C(=O)[C@@H](N)CS2 [Example 61, hydrochloride]	aCD3/aCD28-stimulated human PBMCs	< 5.30
Cl.N[C@H]1CS(=O)(=O)c2cc(F)c(C(=O)N[C@H]3C[C@@H]3c3ccccc3)cc2N(Cc2ccc(Cl)cc2)C1=O [Example 98, hydrochloride]	aCD3/aCD28-stimulated human PBMCs	> 5.80
Cl.N[C@H]1CS(=O)(=O)c2cc(F)c(C(=O)NC3CCC(F)(F)C3)cc2N(Cc2ccc(Cl)cc2)C1=O (stereo partly shown) [Example 105, hydrochloride]	aCD3/aCD28-stimulated human PBMCs	> 5.80
C[C@@H]1[C@H](N)C(=O)N(Cc2ccc(Cl)cc2)c2cc(C(=O)NCCCC(F)(F)F)ccc2S1(=O)=O.Cl [Example 111, hydrochloride]	aCD3/aCD28-stimulated human PBMCs	5.30 to 5.80
C[C@@H](NC(=O)c1ccc2c(c1)N(Cc1ccc(Cl)cc1)C(=O)[C@@H](N)CS2(=O)=O)C1CCOCC1	aCD3/aCD28-stimulated human PBMCs	< 5.30
CC(C)(C)NC(=O)c1cc2c(cc1F)S(=O)(=O)C[C@H](N)C(=O)N2Cc1ccc(Cl)cc1.Cl [Example 96, hydrochloride]	aCD3/aCD28-stimulated human PBMCs	> 5.80
